Where do the numbers come from? From ChEMBL document CHEMBL4480416.

System: A549
Test: Cytotoxicity against human A549 cells assessed as reduction in cell viability at 40 uM after 48 hrs by MTS assay
Type: functional, cell-based
Calls of active or inactive are those of the source. The calls are words filed in the database; no cut-off is given here.
Quantity: Activity

Use these answered entries as a reference point.
>>> measurement("CCC[C@H](O)C/C=C/[C@@H](O)CCCC(=O)OC[C@@H](O)CO")
"inactive"
>>> measurement("CCCC[C@@H](O)[C@H](O)c1ccccc1O")
"inactive"
>>> measurement("CCC[C@H](O)C/C=C/[C@@H](O)CCCC(=O)OC")
"inactive"
>>> measurement("CCC[C@H](O)C/C=C/[C@@H](O)CCCC(=O)OCCCCCNC(C)=O")
"inactive"

Now look at this entry.
# Activity (compound: `CCC[C@@H](O)[C@@H]1Oc2ccccc2[C@@H]1O` ) is inactive
